Item-by-item account of IC50
# experimentalSystem: human PCSK9 (Homo sapiens)
# Sequence (Q8NBP7 153-692): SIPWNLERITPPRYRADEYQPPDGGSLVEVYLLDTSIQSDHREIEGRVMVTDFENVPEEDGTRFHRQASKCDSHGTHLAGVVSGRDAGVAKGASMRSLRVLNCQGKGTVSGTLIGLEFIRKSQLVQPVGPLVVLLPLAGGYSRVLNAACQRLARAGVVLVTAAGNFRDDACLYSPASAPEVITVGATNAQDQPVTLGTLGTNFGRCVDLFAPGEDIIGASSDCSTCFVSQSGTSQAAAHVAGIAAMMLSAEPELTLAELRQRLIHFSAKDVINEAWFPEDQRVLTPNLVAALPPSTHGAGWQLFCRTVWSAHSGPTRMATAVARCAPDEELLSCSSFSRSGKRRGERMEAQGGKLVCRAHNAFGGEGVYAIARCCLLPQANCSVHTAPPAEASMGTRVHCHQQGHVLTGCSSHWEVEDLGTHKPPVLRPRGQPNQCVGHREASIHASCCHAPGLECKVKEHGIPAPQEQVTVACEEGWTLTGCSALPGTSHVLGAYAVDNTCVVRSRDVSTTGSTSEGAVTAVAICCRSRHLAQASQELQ
# Sequence (Q8NBP7 31-152 partner limits assumed): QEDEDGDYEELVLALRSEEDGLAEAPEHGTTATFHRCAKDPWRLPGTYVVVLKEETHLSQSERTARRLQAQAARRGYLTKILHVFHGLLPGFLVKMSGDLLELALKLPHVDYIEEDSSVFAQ
# assayNotes: PCSK9 ligand binding TR-FRET assay (interference with binding of human PCSK9 to human LDLR)
# protocolConditions: TR-FRET; human PCSK9 Alexa Fluor 647 / human LDLR extracellular domain-Europium Kryptate; read-out: PCSK9 FRET Assay IC50

>  <compound>
COC[C@@H]1NC(=O)[C@H](C)N(Cc2ccc(Cl)cc2Oc2ccc(-c3cnc(CN(C)C)n3C)cc2)C(=O)C[C@@H](Cc2ccon2)C(=O)N(C)[C@H]2CCCC[C@@H]2NC(=O)C[C@H](Cc2ccc(Cl)cc2)N(C)C1=O [Compound 18]

>  <experimentalSystem>
human PCSK9 (Homo sapiens)

>  <IC50 / nM>
1.1

$$$$
>  <compound>
COC[C@@H]1NC(=O)[C@H](C)N(Cc2ccc(Cl)cc2Oc2ccc(-c3cnc(CN(C)C)n3C)cc2)C(=O)C[C@@H](Cc2c(F)c(F)cc(F)c2F)C(=O)N(C)[C@@H](C)CNC(=O)C[C@H](Cc2ccc(Cl)cc2)N(C)C1=O [Compound 246]

>  <experimentalSystem>
human PCSK9 (Homo sapiens)

>  <IC50 / nM>
2.4

$$$$
>  <compound>
COC[C@@H]1NC(=O)C(CCN)N(Cc2ccc(Cl)cc2Oc2ccc(-c3cnc(CN(C)C)n3C)cc2)C(=O)C[C@@H](Cc2ccccc2)C(=O)N(C)[C@H]2CCCC[C@@H]2NC(=O)C[C@H](Cc2ccc(Cl)cc2)N(C)C1=O (single isomer, unassigned) [Compound 204]

>  <experimentalSystem>
human PCSK9 (Homo sapiens)

>  <IC50 / nM>
286

$$$$
>  <compound>
COC[C@@H]1NC(=O)[C@H](C)N(Cc2ccc(Cl)cc2Oc2ccc(-c3cnc(C(C)N4CCCC4)n3C)cc2)C(=O)C[C@@H](C)C(=O)N(C)[C@@H](C)CNC(=O)C[C@H](Cc2ccc(Cl)cc2)N(C)C1=O (stereo in doubt) [Compound 103]

>  <experimentalSystem>
human PCSK9 (Homo sapiens)

>  <IC50 / nM>
10.1

$$$$
>  <compound>
COC[C@@H]1NC(=O)[C@H](CCC(=O)O)N(Cc2ccc(Cl)cc2Oc2ccc(-c3cnc(CN(C)C)n3C)cc2)C(=O)C[C@@H](Cc2ccccc2)C(=O)N(C)[C@H]2CCCC[C@@H]2NC(=O)C[C@H](Cc2ccc(Cl)cc2)N(C)C1=O [Compound 245]

>  <experimentalSystem>
human PCSK9 (Homo sapiens)

>  <IC50 / nM>
1.3

$$$$
>  <compound>
COC[C@@H]1NC(=O)[C@H](C)N(Cc2ccc(F)cc2Oc2ccc(-c3cnc(CN(C)C)n3C)cc2)C(=O)C[C@@H](Cc2ccccc2)C(=O)N(C)[C@@H](C)CNC(=O)C[C@H](Cc2ccc(Cl)cc2)N(C)C1=O [Compound 199]

>  <experimentalSystem>
human PCSK9 (Homo sapiens)

>  <IC50 / nM>
24.8

$$$$
>  <compound>
COC[C@@H]1NC(=O)[C@H](COC)N(Cc2ccc(Cl)cc2Oc2ccc(-c3cnc(CN(C)C)n3C)cc2)C(=O)C[C@@H](Cc2ccccc2)C(=O)N(C)[C@H]2CCCC[C@@H]2NC(=O)C[C@H](Cc2ccc(Cl)cc2)N(C)C1=O [Compound 234]

>  <experimentalSystem>
human PCSK9 (Homo sapiens)

>  <IC50 / nM>
0.8

$$$$
>  <compound>
COC[C@@H]1NC(=O)[C@H](C)N(Cc2ccc(Cl)cc2Oc2ccc(-n3cc(CN4CCCC4)nn3)cc2)C(=O)C[C@@H](Cc2ccccc2)C(=O)N(C)[C@@H](C)CNC(=O)C[C@H](Cc2ccc(Cl)cc2)N(C)C1=O [Compound 127]

>  <experimentalSystem>
human PCSK9 (Homo sapiens)

>  <IC50 / nM>
7.8

$$$$
